# Target Or Test System: BSA (Bos taurus, UniProt P02769)
# Construct: purchased Millipore Sigma-Aldrich
# Sequence (P02769 25-607): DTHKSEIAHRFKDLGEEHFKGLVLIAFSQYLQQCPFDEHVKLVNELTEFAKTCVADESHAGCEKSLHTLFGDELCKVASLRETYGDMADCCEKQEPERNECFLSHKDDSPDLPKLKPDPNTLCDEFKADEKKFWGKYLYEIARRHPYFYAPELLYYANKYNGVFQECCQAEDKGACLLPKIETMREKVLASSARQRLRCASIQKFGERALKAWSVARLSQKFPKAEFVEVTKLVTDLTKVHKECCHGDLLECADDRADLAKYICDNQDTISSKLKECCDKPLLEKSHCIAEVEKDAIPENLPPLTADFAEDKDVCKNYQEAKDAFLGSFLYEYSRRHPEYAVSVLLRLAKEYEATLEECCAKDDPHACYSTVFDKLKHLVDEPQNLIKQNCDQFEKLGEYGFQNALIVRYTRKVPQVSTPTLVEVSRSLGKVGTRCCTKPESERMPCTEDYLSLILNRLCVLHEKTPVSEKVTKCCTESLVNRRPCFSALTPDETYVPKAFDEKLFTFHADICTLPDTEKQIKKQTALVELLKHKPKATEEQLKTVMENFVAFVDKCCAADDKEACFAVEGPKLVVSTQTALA
# Procedure Summary: Far-UV CD secondary structure of BSA (CONTIN-LL deconvolution)
# Assay type: physicochemical, bovine
# Recorded Conditions: 1.0 mg/mL BSA, 0.1 mM component, 25 °C
Provide the reported Turns of each item.
Answers are plain numbers.

Examples with their reported Turns follow.
>>> value_observed("CCCCn1cc[n+](C)c1.O=S(=O)([O-])C(F)(F)F [[C4C1Im][CF3SO3]]")
0.141
>>> value_observed("CCn1cc[n+](C)c1.O=S(=O)([O-])C(F)(F)C(F)(F)C(F)(F)C(F)(F)F")
0.142
>>> value_observed("OC[C@H]1O[C@@](CO)(O[C@H]2O[C@H](CO)[C@@H](O)[C@H](O)[C@H]2O)[C@@H](O)[C@@H]1O [Sucrose, sucrose]")
0.136
>>> value_observed("C[N+](C)(C)CCO.C[N+](C)(C)CCO.O=P([O-])(O)O.O=P([O-])(O)O [[N1112(OH)][H2PO4]]")
0.147

Okay, next one:
// C[N+](C)(C)CCO.O=S(=O)([O-])C(F)(F)C(F)(F)C(F)(F)C(F)(F)F [[N1112(OH)][C4F9SO3]] : Turns value = 0.138

----------
# Target Or Test System: FITC-IFN-α2b (Homo sapiens, UniProt P01563)
# Construct: single non-glycosylated polypeptide chain with a molecular weight of 19 kDa, comprising 165 amino acids; purchased Millipore Sigma-Aldrich SRP4595-100UG; host or cells: E. coli
# Sequence (P01563 24-188): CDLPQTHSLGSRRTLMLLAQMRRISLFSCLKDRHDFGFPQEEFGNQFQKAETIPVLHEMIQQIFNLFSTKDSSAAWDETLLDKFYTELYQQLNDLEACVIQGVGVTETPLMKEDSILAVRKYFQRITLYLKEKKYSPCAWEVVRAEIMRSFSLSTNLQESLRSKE
# Procedure Summary: MST binding to FITC-IFN-α2b
# Recorded Conditions: 2.7 μM IFN-α2b; max. conc. first capillary in 1st CAC range; 25 °C; read-out: Kd
# Excerpt: Typically, in the labeling process, one amine per protein is labeled, statistically distributing the position of the dye. Consequently, the risk of the label impairing the binding is minimal, given the typical number of lysine residues in proteins. […] For the MST runs with the concentration of the first capillary above the second CAC, the determined K d values for the runs that yield binding are influenced by several aggregates, making it impossible to attribute the K d value to a specific CAC. […]
Quantity Kind: pKd
Give bare numbers, as −log10 of the molar value.

response.value for CCn1cc[n+](C)c1.O=S(=O)([O-])C(F)(F)C(F)(F)C(F)(F)C(F)(F)F (field: pKd) = 2.04

----------
# Target Or Test System: BSA (Bos taurus, UniProt P02769)
# Construct: purchased Millipore Sigma-Aldrich
# Procedure Summary: Far-UV CD secondary structure of BSA (CONTIN-LL deconvolution)
# Type: physicochemical, bovine
# Recorded Conditions: 1.0 mg/mL BSA, 120 mM component, 25 °C
Please use t whenever Regular Alpha Helix is not below 0.4, and f whenever it is.

>>> class("CCCCn1cc[n+](C)c1.O=S(=O)([O-])C(F)(F)F [[C4C1Im][CF3SO3]]")
"f"

Okay, now this compound:
Data request: hey, is Regular Alpha Helix for this one >= 0.4? OC[C@H]1O[C@@](CO)(O[C@H]2O[C@H](CO)[C@@H](O)[C@H](O)[C@H]2O)[C@@H](O)[C@@H]1O
Data returned: t

----------
# Target Or Test System: BSA (Bos taurus, UniProt P02769)
# Construct: purchased Millipore Sigma-Aldrich
# Procedure Summary: Far-UV CD secondary structure of BSA (CONTIN-LL deconvolution)
# Type: physicochemical, bovine
# Recorded Conditions: 1.0 mg/mL BSA, 120 mM component, 25 °C
Quantity Kind: Distorted Beta Sheet

Worked cases, Distorted Beta Sheet given:
>>> value_observed("CCCCn1cc[n+](C)c1.O=S(=O)([O-])C(F)(F)F [[C4C1Im][CF3SO3]]")
0.019
>>> value_observed("CCn1cc[n+](C)c1.O=S(=O)([O-])C(F)(F)C(F)(F)C(F)(F)C(F)(F)F")
0.032
>>> value_observed("OC[C@H]1O[C@@](CO)(O[C@H]2O[C@H](CO)[C@@H](O)[C@H](O)[C@H]2O)[C@@H](O)[C@@H]1O")
0.025
>>> value_observed("C[N+](C)(C)CCO.C[N+](C)(C)CCO.O=P([O-])(O)O.O=P([O-])(O)O [[N1112(OH)][H2PO4]]")
0.029

Tested on BSA (Bos taurus, UniProt P02769), the item C[N+](C)(C)CCO.O=S(=O)([O-])C(F)(F)C(F)(F)C(F)(F)C(F)(F)F [[N1112(OH)][C4F9SO3]] showed Distorted Beta Sheet equal to 0.032
